# experimental_system: Human recombinant PDE10A2 (Homo sapiens (Human), UniProt Q9Y233)
# Sequence (Q9Y233 267-1055): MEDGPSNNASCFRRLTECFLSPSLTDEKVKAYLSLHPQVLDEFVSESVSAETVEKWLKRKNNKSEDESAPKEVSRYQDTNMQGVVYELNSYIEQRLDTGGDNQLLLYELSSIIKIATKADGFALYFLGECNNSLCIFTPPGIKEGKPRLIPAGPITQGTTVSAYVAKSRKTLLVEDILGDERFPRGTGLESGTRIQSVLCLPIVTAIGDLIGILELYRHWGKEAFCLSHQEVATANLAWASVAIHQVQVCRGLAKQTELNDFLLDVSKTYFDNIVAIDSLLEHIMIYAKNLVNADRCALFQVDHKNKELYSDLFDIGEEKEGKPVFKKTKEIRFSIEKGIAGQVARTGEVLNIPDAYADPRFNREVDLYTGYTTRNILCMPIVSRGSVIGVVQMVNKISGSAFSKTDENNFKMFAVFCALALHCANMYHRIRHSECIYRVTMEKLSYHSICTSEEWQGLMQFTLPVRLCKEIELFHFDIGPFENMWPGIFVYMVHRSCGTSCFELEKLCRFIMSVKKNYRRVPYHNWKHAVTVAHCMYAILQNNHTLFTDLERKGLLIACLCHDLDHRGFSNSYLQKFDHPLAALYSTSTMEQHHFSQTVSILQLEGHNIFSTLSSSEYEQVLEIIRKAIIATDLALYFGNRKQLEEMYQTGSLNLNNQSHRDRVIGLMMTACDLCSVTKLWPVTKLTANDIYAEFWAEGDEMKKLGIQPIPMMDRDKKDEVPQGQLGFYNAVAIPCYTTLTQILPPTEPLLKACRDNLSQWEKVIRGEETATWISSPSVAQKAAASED
# experiment: In vitro hPDE10a: human recombinant PDE10A2 scintillation proximity assay, IC50
# experimental_parameters: human recombinant PDE10A2, SPA, 60 nM cAMP; read-out: hPDE10a2 IC50
Structures can show the parent of a compound that is named as a salt.
Label key: YES means IC50 under 6 nM; NO means IC50 of 6 nM or more.

1. O=C(O)c1ccc(-c2c(CCc3ccc4ccccc4n3)nc3c(N4CCOCC4)ccnn23)cc1O [compound 64] = YES
2. O=C1NC(=O)C(c2ccc(-c3c(CCc4ccc5ccccc5n4)nc4c(N5CCOCC5)ccnn34)cc2)O1 (stereo not drawn) [Cpd 70] = YES
3. CC(=O)NS(=O)(=O)c1ccc(-c2c(CCc3ccc4ccccc4n3)nc3c(N4CCOCC4)ccnn23)cc1 [compound 42] = YES
4. O=C(O)C1CCN(c2ccc(-c3c([C@H]4C[C@H](c5ccc6ccccc6n5)C4)nc4c(N5CCOCC5)ccnn34)cc2)CC1 [compound 168] = YES
5. CC(C)[C@H](NC(=O)c1ccc(-c2c(/C=C/c3ccc4ccccc4n3)nc3c(N4CCOCC4)ccnn23)cc1)C(=O)O [Cpd 73, trifluoroacetic acid salt] = NO
6. O=C(O)CN1CCC(c2c(/C=C/c3ccc4ccccc4n3)nc3c(N4CCOCC4)ccnn23)CC1 [Cpd 29, trifluoroacetic acid salt] = NO
7. O=C(O)c1ccc(-c2c(/C=C/c3ccc4ccccc4n3)nc3c(N4CCOCC4)ccnn23)cc1F [compound 103] = YES
8. CS(=O)(=O)NC(=O)CCc1ccc(-c2c(/C=C/c3ccc4ccccc4n3)nc3c(N4CCOCC4)ccnn23)cc1 [Cpd 132, trifluoroacetic acid salt] = NO
9. CS(=O)(=O)NC(=O)c1cccc2nc(/C=C/c3cn4nc(Cl)cc(N5CCOCC5)c4n3)ccc12 [Cpd 104] = YES
10. O=C(O)c1ccc(-c2c(/C=C/c3ccccn3)nc3c(N4CCOCC4)ccnn23)cc1 [Cpd 89] = NO
11. CS(=O)(=O)NC(=O)c1ccc(-c2c(CCc3ccc4ccccc4n3)nc3c(N4CCOCC4)ccnn23)cc1 [compound 43] = YES
12. c1ccc2ncc(OCCc3nc4c(N5CCOCC5)ccnn4c3-c3ccc(N4CCNCC4)nc3)cc2c1 [Cpd 14, trifluoroacetic acid salt] = NO
13. O=C(O)c1ccc(-c2c([C@H]3C[C@@H](c4ccc5ccccc5n4)C3)nc3c(N4CCOCC4)ccnn23)cc1 [compound 167, trifluoroacetic acid salt] = NO
14. O=C(O)c1cccc(-c2c(C#Cc3ccc4ccccc4n3)nc3c(N4CCOCC4)ccnn23)c1 [Cpd 88, trifluoroacetic acid salt] = YES
15. c1ccc2nc(NCc3nc4c(N5CCOCC5)ccnn4c3-c3ccc(N4CCNCC4)nc3)ccc2c1 [Cpd 4, trifluoroacetic acid salt] = NO
16. O=C(O)c1ccc(-c2c(CCc3ccc4ccccc4n3)nc3c(N4CCOCC4)ccnn23)s1 [compound 61] = YES
17. O=C(O)CCNc1ccc(-c2c(/C=C/c3ccc4ccccc4n3)nc3c(N4CCOCC4)ccnn23)cc1 [Cpd 93, trifluoroacetic acid salt] = YES
18. Cn1nc(-c2ccc(-c3c(/C=C/c4ccc5ccccc5n4)nc4c(N5CCOCC5)ccnn34)cc2F)[nH]c1=O [Cpd 163] = NO
19. O=C(O)c1ccc(-c2c(/C=C/c3ccc4ccccc4n3)nc3c(N4CCOCC4)ccnn23)cc1O [compound 63] = YES
20. O=c1ncn(-c2ccc(-c3c(CCc4ccc5ccccc5n4)nc4c(N5CCOCC5)ccnn34)cc2)[nH]1 [Cpd 59, trifluoroacetic acid salt] = YES
21. CS(=O)(=O)NC(=O)c1cccc2nc(/C=C/c3nc4c(N5CCOCC5)ccnn4c3-c3ccccc3)ccc12 [Cpd 122] = YES
22. C(=C\c1nc2c(N3CCOCC3)ccnn2c1-c1ccc(-c2nnn[nH]2)nc1)/c1ccc2ccccc2n1 [Cpd 19] = YES
23. O=c1[nH]c(-c2ccc(-c3c(COc4ccc5ccccc5n4)nc4c(N5CCOCC5)ccnn34)cn2)no1 [Cpd 35] = YES

Provenance of the data: patent US9193736B2
